# tgt: androgen receptor (AR) (Homo sapiens, UniProt P10275, T878A)
# Construct: LNCaP cells expressing ARR2PB-FireflyLuc and CMV-RenillaLuc; endogenous in cells; host or cells: LNCaP cells carrying ARR2PB-FireflyLuc and CMV-RenillaLuc reporters
# Sequence (P10275 whole entry T878A): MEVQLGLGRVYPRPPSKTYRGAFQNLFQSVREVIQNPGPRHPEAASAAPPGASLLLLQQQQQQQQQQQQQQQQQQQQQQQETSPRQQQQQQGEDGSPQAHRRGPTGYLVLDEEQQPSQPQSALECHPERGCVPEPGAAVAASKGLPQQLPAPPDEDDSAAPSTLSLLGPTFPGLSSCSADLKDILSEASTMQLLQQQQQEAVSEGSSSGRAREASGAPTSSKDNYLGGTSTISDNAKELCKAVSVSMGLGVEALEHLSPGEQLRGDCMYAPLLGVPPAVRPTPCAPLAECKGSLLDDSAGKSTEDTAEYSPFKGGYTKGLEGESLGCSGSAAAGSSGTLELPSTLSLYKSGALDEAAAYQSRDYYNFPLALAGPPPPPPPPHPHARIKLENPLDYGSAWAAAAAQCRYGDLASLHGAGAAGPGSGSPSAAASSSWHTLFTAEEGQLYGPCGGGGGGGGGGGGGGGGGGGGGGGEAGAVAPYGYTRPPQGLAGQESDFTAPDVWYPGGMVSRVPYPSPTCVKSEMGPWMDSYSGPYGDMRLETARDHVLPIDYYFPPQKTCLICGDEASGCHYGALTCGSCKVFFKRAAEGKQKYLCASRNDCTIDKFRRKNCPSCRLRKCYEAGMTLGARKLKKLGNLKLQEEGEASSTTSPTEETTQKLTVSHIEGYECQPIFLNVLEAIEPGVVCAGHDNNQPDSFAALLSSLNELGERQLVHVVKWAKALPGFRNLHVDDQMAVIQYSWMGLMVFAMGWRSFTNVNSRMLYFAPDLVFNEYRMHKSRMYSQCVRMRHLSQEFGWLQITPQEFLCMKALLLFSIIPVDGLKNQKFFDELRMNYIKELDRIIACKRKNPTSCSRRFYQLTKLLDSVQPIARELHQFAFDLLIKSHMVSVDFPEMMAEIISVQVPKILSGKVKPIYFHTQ
# assayRemarks: AR reporter assay in LNCaP cells expressing ARR2PB-FireflyLuc and CMV-RenillaLuc, antagonist mode (% remaining activity, IC50)
# Type: cell-based
# details: 48 h at 37° C., class symbols A-D, read-out: IC50
pIC50: −log10 of the molar value.

| compound | pIC50 |
| --- | --- |
| CC1CCNc2ccc(-c3n[nH]c4cc(F)c(F)cc34)nc21 (single isomer, unassigned) [Compound 47] | 6.00 to 7.00 |
| CC1(C)NC(=O)c2ccc(-c3c[nH]c4cc(F)ccc34)nc21 [Compound 216] | 6.00 to 7.00 |
| CC1(C)NC(=O)c2ccc(-c3c[nH]c4cc(F)c(F)cc34)nc21 [Compound 122] | 6.00 to 7.00 |
| COCCN(C)c1cncc(-c2c[nH]c3c(C#N)cccc23)n1 [Compound 177] | 6.00 to 7.00 |
| N#Cc1cccc2c(-c3cnc(OC4CCNC4)c(C(F)(F)F)n3)c[nH]c12 (centres unmarked) [Compound 245] | 5.00 to 6.00 |
| c1ccc2c(-c3cnc4c(c3)NCCC4)n[nH]c2c1 [Compound 57] | < 5.00 |
| c1ccc2c(-c3ccc4ccncc4n3)n[nH]c2c1 [Compound 8] | > 7.00 |
| CC(=O)N1CCC(Oc2ncc(-c3c[nH]c4c(C(F)(F)F)cccc34)nc2C)C1 (centres unmarked) [Compound 258] | 6.00 to 7.00 |
| CC1(C)NC(=O)c2ccc(-c3n[nH]c4cc(F)c(F)cc34)nc21 [Compound 52] | 6.00 to 7.00 |
| COc1nc(-c2c[nH]c3c(C#N)cccc23)cnc1N[C@H]1CCN(C(C)=O)C1 [Compound 288] | > 7.00 |
| c1ccc2nc(-c3n[nH]c4cc(N5CCOCC5)ccc34)ccc2c1 [Compound 2] | < 5.00 |
| N#Cc1cccc2c(-c3ccc4nc(N)sc4c3)c[nH]c12 [Compound 180] | 5.00 to 6.00 |
| Cc1nc(-c2c[nH]c3c(C(F)(F)F)cccc23)ccc1N [Compound 159] | 6.00 to 7.00 |
| Cn1c(=O)ccc2nc(-c3n[nH]c4ccccc34)ccc21 [Compound 17] | 5.00 to 6.00 |
| c1cnc2[nH]cc(-c3ccc(C4COC4)cn3)c2c1 [Compound 129] | 5.00 to 6.00 |
| COc1ccc2nc(-c3n[nH]c4ccccc34)ccc2n1 [Compound 16] | < 5.00 |
| N#Cc1cccc2c(-c3ccc(OC4CCNC4)c(F)c3)c[nH]c12 (centres unmarked) [Compound 229] | 6.00 to 7.00 |
| CC(=O)N1CC(Oc2ncc(-c3c[nH]c4c(C#N)cccc34)nc2C)C1 [Compound 240] | 6.00 to 7.00 |
| Nc1ccc(-c2n[nH]c3cc(F)c(F)cc23)nc1Cl [Compound 93] | 6.00 to 7.00 |
| CC(=O)N1CCC(Oc2ccc(-c3c[nH]c4c(C#N)cccc34)nc2C)C1 (centres unmarked) [Compound 260] | 6.00 to 7.00 |
| Cc1nc(-c2c[nH]c3c(C#N)cccc23)ccc1OC1CCNC1 (centres unmarked) [Compound 230] | 6.00 to 7.00 |
| CC(C)Oc1nc(-c2n[nH]c3cc(F)c(F)cc23)ccc1N [Compound 89] | 5.00 to 6.00 |
| CNc1ccc(-c2n[nH]c3cc(F)c(F)cc23)nc1C [Compound 94] | 5.00 to 6.00 |
| Cc1cc(F)cc2c(-c3ccc4c(n3)CCCN4)n[nH]c12 [Compound 43] | 6.00 to 7.00 |
| CC1(C)NC(=O)c2ccc(-c3c[nH]c4c(C#N)c(Cl)ccc34)nc21 [Compound 185] | 5.00 to 6.00 |
| Cc1nc(-c2n[nH]c3c(Cl)cccc23)cnc1OC1CCNC1 (centres unmarked) [Compound 277] | 6.00 to 7.00 |
| c1cnc2[nH]cc(-c3ccc(C4CC4)cn3)c2c1 [Compound 128] | 6.00 to 7.00 |
| O=S1(=O)CCNc2ccc(-c3n[nH]c4cc(F)c(F)cc34)nc21 [Compound 115] | < 5.00 |
| Cc1nc(-c2n[nH]c3cc(F)c(F)cc23)ccc1C(N)=O [Compound 101] | < 5.00 |
| CC(C)(O)c1ccc(-c2n[nH]c3cc(F)c(F)cc23)cn1 [Compound 73] | < 5.00 |
| COc1nc(-c2c[nH]c3c(C#N)cccc23)cnc1NCC(C)(C)O [Compound 280] | 6.00 to 7.00 |
| Cc1nc(-c2c[nH]c3c(Cl)cccc23)ccc1OC1CCNC1 (centres unmarked) [Compound 238] | 5.00 to 6.00 |
